Observed HepSE_cholelithiasis, system Hepatotoxicity. Further: call rule not given here.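 Further: hepatic side effect score for cholelithiasis, drawn from the DILIps training data for predicting drug-induced liver injury.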

compound | HepSE_cholelithiasis
CCN1CCN(C(=O)N[C@@H](C(=O)N[C@@H]2C(=O)N3C(C(=O)O)=C(CSc4nnnn4C)CS[C@H]23)c2ccc(O)cc2)C(=O)C1=O [CEFOPERAZONE] | 0
CCOC(=O)[C@H](CCc1ccccc1)N[C@H]1CCc2ccccc2N(CC(=O)O)C1=O [BENAZEPRIL] | 0
CC(=O)OCC(=O)[C@@]12OC(C)(C)O[C@@H]1C[C@H]1[C@@H]3C[C@H](F)C4=CC(=O)C=C[C@]4(C)[C@@]3(F)[C@@H](O)C[C@@]12C [FLUOCINONIDE] | 0

All values here come from ChEMBL document CHEMBL1909294.
